All figures here come from patent US7662857B2.

test system: pancreatic exocrine function; assay: 13C-dipeptide breath test in normal rats (Δ13C in exhaled CO2 after oral administration); type: in vivo, rat; settings: rats, oral 35 μmol/kg; comparison in words
RESULT_TYPE: Δ^13C(‰) peak value compared with the peak value of Bz-Ala-(^13C-Ala)-ONa

COMPOUND	ASSAY_VALUE
C[C@H](NC(=O)[C@H](CCC(N)=O)NC(=O)c1ccccc1)[13C](=O)[O-].[Na+] [Na salt of Bz-Gln-(^13C-Ala), N-benzoyl-L-glutaminyl-^13C-L-alanine]	higher
C[C@H](NC(=O)[C@H](CO)NC(=O)c1ccccc1)[13C](=O)[O-].[Na+] [Na salt of Bz-Ser-(^13C-Ala), N-benzoyl-L-seryl-^13C-L-alanine]	higher
C[C@H](NC(=O)[C@H](Cc1ccccc1)NC(=O)OC(C)(C)C)[13C](=O)[O-].[Na+] [Na salt of Boc-Phe-(^13C-Ala)]	higher

====

Listed below: Δ^13C(‰) peak value values for each entry.
test system: pancreatic exocrine function; test: 13C-dipeptide breath test in normal rats (Δ13C in exhaled CO2 after oral administration); type: in vivo, rat; details: Table 1; overnight-fasted Wistar rats, oral 35 μmol/kg (5 ml/kg); exhaled CO2

MOLECULE	Δ^13C(‰) peak value
C[C@H](NC(=O)[C@H](Cc1ccccc1)NC(=O)c1ccccc1)[13C](=O)[O-].[Na+] [Na salt of Bz-Phe-(^13C-Ala), N-benzoyl-L-phenylalanyl-^13C-L-alanine]	55.62 ‰

Give a short answer stating reported Δ^13C(‰) peak value for C[C@H](NC(=O)[C@H](CC(=O)O)NC(=O)c1ccccc1)[13C](=O)[O-].[Na+] [Na salt of Bz-Asp-(^13C-Ala), reference compound] .
11.47 ‰

Identify the reported Δ^13C(‰) peak value for the following entry. C[C@H](NC(=O)CNC(=O)c1ccccc1)[13C](=O)[O-].[Na+] [Na salt of Bz-Gly-(^13C-Ala), reference compound]
32.14 ‰

Identify measured Δ^13C(‰) peak value corresponding to CC(C)[C@H](NC(=O)c1ccccc1)C(=O)N[C@@H](C)[13C](=O)[O-].[Na+] [Na salt of Bz-Val-(^13C-Ala), N-benzoyl-L-valyl-^13C-L-alanine]
52.89 ‰

====

tested on: pancreatic exocrine function; test: 13C-dipeptide breath test in normal rats (Δ13C in exhaled CO2 after oral administration); assay type: in vivo, rat; conditions: Table 2; rats, oral 35 μmol/kg (5 ml/kg); exhaled CO2
RESULT_TYPE: Δ^13C(‰) peak value

Previously resolved entries follow.
COMPOUND	RESULT_TYPE	ASSAY_VALUE
C[C@H](NC(=O)[C@H](Cc1ccccc1)NC(=O)OC(C)(C)C)[13C](=O)[O-].[Na+] [Na salt of Boc-Phe-(^13C-Ala)]	Δ^13C(‰) peak value	46.06 ‰
CSCC[C@H](NC(C)=O)C(=O)N[C@@H](C)[13C](=O)[O-].[Na+] [Na salt of Ac-Met-(^13C-Ala), acetyl-L-methionyl-^13C-L-alanine]	Δ^13C(‰) peak value	63.15 ‰
C[C@H](NC(=O)c1ccccc1)C(=O)N[C@@H](C)[13C](=O)[O-].[Na+] [Na salt of Bz-Ala-(^13C-Ala), reference compound]	Δ^13C(‰) peak value	45.88 ‰
CSCC[C@H](NC(=O)OC(C)(C)C)C(=O)N[C@@H](C)[13C](=O)[O-].[Na+] [Na salt of Boc-Met-(^13C-Ala)]	Δ^13C(‰) peak value	55.50 ‰

Supply Δ^13C(‰) peak value value. Item: CSCC[C@H](NC(=O)OCc1ccccc1)C(=O)N[C@@H](C)[13C](=O)[O-].[Na+] [Na salt of Z-Met-(^13C-Ala)]
48.71 ‰
